- Tested on: prostate specific antigen (PSA)
- assay protocol: Inhibition of prostate specific antigen (PSA) in 22RV1 cells induced with R1881
- Format: cell-based
- assay context: Homo sapiens, 22Rv1, read-out: 22RV1 (IC50, nM)
Reported IC50 values follow for various compounds
measured property: IC50

- compound: "CNC(=O)c1ccc(N2C(=S)N(c3ccc(C#N)c(C(F)(F)F)c3)C(=O)C23CCC3)cc1F [Example 1, reference compound]"
  result: "< 2000 nM"
- compound: "CN(C)C(=O)c1ccc(N2C(=S)N(c3ccc(C#N)c(C(F)(F)F)c3)C(=O)C2(C)C)cc1F [Example 5]"
  result: "< 1600 nM"
- compound: "CN(C)C(=O)c1ccc(N2C(=S)N(c3ccc(C#N)c(C(F)(F)F)c3)C(=O)C23CCC3)cc1F [Example 2]"
  result: "< 1600 nM"
- compound: "[2H]C([2H])([2H])NC(=O)c1ccc(N2C(=S)N(c3ccc(C#N)c(C(F)(F)F)c3)C(=O)C23CCC3)cc1F [Example 3]"
  result: "< 1000 nM"

---

Reported IC50 values follow for various compounds
- System: human prostate cancer 22RV1 cells
- assay protocol: Inhibition of the growth of prostate cancer cells (MTT), 22RV1
- Format: cell-based
- assay context: Homo sapiens, 22Rv1, 96 h, read-out: 22RV1 (IC50, uM)

- compound: "[2H]C([2H])([2H])NC(=O)c1ccc(N2C(=S)N(c3ccc(C#N)c(C(F)(F)F)c3)C(=O)C23CCC3)cc1F"
  measurement target: "human prostate cancer 22RV1 cells"
  IC50 / µM: 15
- compound: "[2H]c1cc(N2C(=S)N(c3ccc(C#N)c(C(F)(F)F)c3)C(=O)C2(C)C)ccc1C(=O)NC"
  measurement target: "human prostate cancer 22RV1 cells"
  IC50 / µM: 18.9
- compound: "CNC(=O)c1ccc(N2C(=S)N(c3ccc(C#N)c(C(F)(F)F)c3)C(=O)C23CCC3)cc1F [Example 1, reference compound]"
  measurement target: "human prostate cancer 22RV1 cells"
  IC50 / µM: 26

---

- Test system: human prostate cancer LNCaP cells
- assay protocol: Inhibition of the growth of prostate cancer cells (MTT), LNCaP
- Format: cell-based
- assay context: Homo sapiens; growth inhibition, LNCaP cells, R1881 added, 96 hours, MTT; read-out: LNCaP (IC50)
measured property: IC50 (nM)

- molecule: "CN(C)C(=O)c1ccc(N2C(=S)N(c3ccc(C#N)c(C(F)(F)F)c3)C(=O)C2(C)C)cc1F"
  measured property: "IC50"
  recorded number: 2070
- molecule: "CN(C)C(=O)c1ccc(N2C(=S)N(c3ccc(C#N)c(C(F)(F)F)c3)C(=O)C23CCC3)cc1F"
  measured property: "IC50"
  recorded number: 1370
- molecule: "CC(O)(CS(=O)(=O)c1ccc(F)cc1)C(=O)Nc1ccc(C#N)c(C(F)(F)F)c1 (stereo not drawn) [bicalutamide, reference compound]"
  measured property: "IC50"
  recorded number: 18400

---

Reported Cmax values follow for various compounds
- assay protocol: Pharmacokinetic evaluation in mice
- Assay type: in vivo, Kunming mice (KM mice)
- assay context: Kunming (KM), mouse, plasma, po; male KM mice, 10 mg/kg intragastrically, DMSO:PEG400:H2O 1:5:14

- compound: "CNC(=O)c1ccc(N2C(=S)N(c3ccc(C#N)c(C(F)(F)F)c3)C(=O)C2(C)C)cc1F [Example 4, reference compound]"
  measurement unit: "ng/mL"
  Cmax: 8450
- compound: "[2H]C([2H])([2H])NC(=O)c1ccc(N2C(=S)N(c3ccc(C#N)c(C(F)(F)F)c3)C(=O)C2(C)C)cc1F"
  measurement unit: "ng/mL"
  Cmax: 10400
